tested_on: alpha2B adrenergic receptor (Homo sapiens, UniProt P18089)
Construct: expressed in transfected cells; host or cells: NIH-3T3
Sequence (P18089 1-450): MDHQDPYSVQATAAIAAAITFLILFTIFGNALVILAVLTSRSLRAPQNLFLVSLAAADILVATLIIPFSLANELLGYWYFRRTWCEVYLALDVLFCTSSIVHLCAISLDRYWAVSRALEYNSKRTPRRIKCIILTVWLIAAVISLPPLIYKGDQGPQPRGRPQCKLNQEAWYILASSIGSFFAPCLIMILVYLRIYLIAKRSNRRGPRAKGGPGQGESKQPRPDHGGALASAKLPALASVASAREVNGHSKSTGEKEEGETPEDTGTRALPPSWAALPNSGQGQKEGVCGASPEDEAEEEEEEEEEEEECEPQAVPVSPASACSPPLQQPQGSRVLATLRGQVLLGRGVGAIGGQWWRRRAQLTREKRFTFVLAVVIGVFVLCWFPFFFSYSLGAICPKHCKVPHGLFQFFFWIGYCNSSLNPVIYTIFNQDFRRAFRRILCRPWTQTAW
method_summary: Receptor Selection and Amplification Technology (RSAT) assay, alpha2B
Assay type: cell-based
condition_notes: ratio of maximal effect to that of standard full agonist brimonidine (UK14304)
reported_property: Intrinsic Activity Alpha 2B
// return just the number, without any unit appended

Recorded Intrinsic Activity Alpha 2B, per entry:
molecule	tested_on	observed_measurement
S=c1[nH]cc(Cn2ccc3c(Cl)cccc32)[nH]1	alpha2B adrenergic receptor (Homo sapiens, UniProt P18089)	1.17
CC(c1c[nH]c(=S)[nH]1)c1ccnc2c1CCCC2 (stereo not shown)	alpha2B adrenergic receptor (Homo sapiens, UniProt P18089)	0.99
S=c1[nH]cc(Cn2ccc3cccc(Cl)c32)[nH]1	alpha2B adrenergic receptor (Homo sapiens, UniProt P18089)	1.17
S=c1[nH]cc(Cc2cccs2)[nH]1	alpha2B adrenergic receptor (Homo sapiens, UniProt P18089)	1.09
Fc1cccc2ccn(Cc3c[nH]c(=S)[nH]3)c12	alpha2B adrenergic receptor (Homo sapiens, UniProt P18089)	1.07
S=c1[nH]cc(CN2CCCc3ccccc32)[nH]1	alpha2B adrenergic receptor (Homo sapiens, UniProt P18089)	1.13

Note: attention shifts to another entry.
Problem: Indicate the recorded Intrinsic Activity Alpha 2B value for this molecule: Cc1cccc2ccn(Cc3c[nH]c(=S)[nH]3)c12
Result: 1.01

###

Below, each of the molecules is paired with its reported Intrinsic Activity Alpha 2B value.
tested_on: alpha2B adrenergic receptor (Homo sapiens, UniProt P18089)
Construct: expressed in transfected cells; host or cells: NIH-3T3
method_summary: Receptor Selection and Amplification Technology (RSAT) assay, alpha2B
Format: cell-based
condition_notes: ratio of maximal effect to that of standard full agonist brimonidine (UK14304)
Kindly provide the number alone.

These solved cases illustrate the format of a correct answer.
molecule	Intrinsic Activity Alpha 2B
CC(c1c[nH]c(=S)[nH]1)c1coc2ccccc12 (stereo not drawn)	1.0
S=c1[nH]cc(Cn2ccc3cccc(Br)c32)[nH]1	1.01
S=c1[nH]cc(Cn2ccc3ccnc(Cl)c32)[nH]1	1.5
S=c1[nH]cc(Cn2ccc3ccc(Cl)c(Cl)c32)[nH]1	0.98
S=c1[nH]cc(Cn2ccc3ccc(Cl)nc32)[nH]1	0.76

Problem: Using the record for Cc1cccc(C(C)c2c[nH]c(=S)[nH]2)n1 (stereo not drawn) , state its measured Intrinsic Activity Alpha 2B.
Result: 1.16
